Source of measurements: patent USRE47150

targetSystem: T1, mouse tissue factor pathway inhibitor (TFPI) (mouse, UniProt O54819 29-289, limits assumed)
T1 construct: bought; also called mTFPI; murine TFPI
T1 sequence (looked up): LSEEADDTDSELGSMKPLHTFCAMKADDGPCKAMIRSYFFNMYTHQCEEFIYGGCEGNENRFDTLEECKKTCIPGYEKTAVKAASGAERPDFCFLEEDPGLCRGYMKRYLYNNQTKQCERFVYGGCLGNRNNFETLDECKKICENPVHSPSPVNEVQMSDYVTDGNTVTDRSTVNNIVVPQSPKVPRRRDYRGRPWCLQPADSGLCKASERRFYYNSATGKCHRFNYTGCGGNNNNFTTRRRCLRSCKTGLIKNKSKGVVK
assayName: competitive ELISA
readoutName: variant/HC_D62R (ratio)
Report only the number, with the unit ratio understood.

Name the recorded variant/HC_D62R of the item 4B7 HC N32D+D62R+Y112D/LC V30L+S32R+D33F+N35I+D97T (Fab, V domains shown) VH: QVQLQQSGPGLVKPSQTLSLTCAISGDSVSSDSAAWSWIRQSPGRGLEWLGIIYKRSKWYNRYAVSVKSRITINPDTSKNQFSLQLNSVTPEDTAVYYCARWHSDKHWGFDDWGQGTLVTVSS VL: DIVMTQSPLSLPVTPGEPASISCRSSQSLLFRFGITYLNWYLQKPGQSPQLLIYKGSNRASGVPDRFSGSGSGTDFTLKISRVEAEDVGVYYCQQYTSYPLTFGQGTKVEIKR in your answer. 42.2

Others:
Provide only the value of recorded variant/HC_D62R for 4B7 HC D62R+H107M+Y112D/LC F31M+D33F (Fab, V domains shown) VH: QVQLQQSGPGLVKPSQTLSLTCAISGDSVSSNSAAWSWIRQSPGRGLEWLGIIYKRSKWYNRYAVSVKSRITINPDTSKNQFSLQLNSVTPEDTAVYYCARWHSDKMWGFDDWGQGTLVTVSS VL: DIVMTQSPLSLPVTPGEPASISCRSSQSLVMSFGNTYLNWYLQKPGQSPQLLIYKGSNRASGVPDRFSGSGSGTDFTLKISRVEAEDVGVYYCQQYDSYPLTFGQGTKVEIKR 31.3

Indicate its recorded variant/HC_D62R; the binder in question is 4B7 HC N32D+D62R+Y112D/LC M4I+S32R+D33F+N35I+D97T (Fab, V domains shown) VH: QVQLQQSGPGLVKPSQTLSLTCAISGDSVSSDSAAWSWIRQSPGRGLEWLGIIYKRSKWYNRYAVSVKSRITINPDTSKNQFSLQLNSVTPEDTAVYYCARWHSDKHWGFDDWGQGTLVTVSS VL: DIVITQSPLSLPVTPGEPASISCRSSQSLVFRFGITYLNWYLQKPGQSPQLLIYKGSNRASGVPDRFSGSGSGTDFTLKISRVEAEDVGVYYCQQYTSYPLTFGQGTKVEIKR 12
